# Test system: hPSC-NSCs
# METHOD_DESCRIPTION: RT-PCR expression of dopamine neuron genes in hPSC-NSCs treated with small molecule hits
# Format: cell-based, human
# CONDITION_NOTES: hPSC-NSCs primed 7 days with Purmorphamine and FGF8, small molecule 2.5 μM for two weeks
MEASURED_ENDPOINT: LMX1B expression by RT-PCR

> print(dat)
                                    molecule           measured.endpoint  assay.result
 1  Cl.N=C(N)NC(=N)Nc1cccc(Cl)c1 [m-Chlorophenylbiguanide hydrochloride]  LMX1B expression by RT-PCR          3.73
 2  Br.CCCN(CCC)C1CCc2cccc(O)c2C1 (stereo not shown) [8-Hydroxy-DPAT hydrobromide]  LMX1B expression by RT-PCR          5.42
 3                    N[C@@H](CS(=O)O)C(=O)O  LMX1B expression by RT-PCR          2.66
 4  Cc1cc(C(=O)O)sc1C(N)C(=O)O (stereo not shown)  LMX1B expression by RT-PCR          2.99
 5  Cl.O=C(O)COc1ccc(OCCNC[C@H](O)COc2ccccc2)cc1 [ICI 215,001 hydrochloride]  LMX1B expression by RT-PCR          4.79
 6       Cc1nnc2ccc(-c3cccc(C(F)(F)F)c3)nn12  LMX1B expression by RT-PCR          2.52
 7                     O=C(O)Cc1cccnc1C(=O)O  LMX1B expression by RT-PCR          2.32
 8       N[C@@H]1CCN(O)C1=O [(R)-(+)-HA-966]  LMX1B expression by RT-PCR          3.94
 9  C/C(=C\c1ccc(C(=O)O)cc1)c1ccc2c(c1)C(C)(C)CCC2(C)C  LMX1B expression by RT-PCR          1.45
10  CC(C)(C)c1cc(C(=O)/C=C/c2ccc(C(=O)O)cc2)cc(C(C)(C)C)c1  LMX1B expression by RT-PCR          1.54

====

# Tested on: hPSC-NSCs
# METHOD_DESCRIPTION: RT-PCR expression of dopamine neuron genes in hPSC-NSCs treated with small molecule hits
# Assay type: cell-based, human
# CONDITION_NOTES: hPSC-NSCs primed 7 days with Purmorphamine and FGF8, small molecule 2.5 μM for two weeks
Measured Tubb3 expression by RT-PCR accompanies every entry in the list below.
MEASURED_ENDPOINT: Tubb3 expression by RT-PCR

> print(dat)
                                   molecule           measured.endpoint  assay.result
1       Cc1nnc2ccc(-c3cccc(C(F)(F)F)c3)nn12  Tubb3 expression by RT-PCR           4.3
2  Cc1cc(C(=O)O)sc1C(N)C(=O)O (centres unmarked)  Tubb3 expression by RT-PCR          3.74
3  CC(C)(C)c1cc(C(=O)/C=C/c2ccc(C(=O)O)cc2)cc(C(C)(C)C)c1  Tubb3 expression by RT-PCR          3.48
4       N[C@@H]1CCN(O)C1=O [(R)-(+)-HA-966]  Tubb3 expression by RT-PCR          5.61
5  Nc1nc(Nc2ccccc2)nc2c1ncn2[C@@H]1O[C@H](CO)[C@@H](O)[C@H]1O  Tubb3 expression by RT-PCR          3.86
6                    N[C@@H](CS(=O)O)C(=O)O  Tubb3 expression by RT-PCR          3.41
7  Cl.N=C(N)NC(=N)Nc1cccc(Cl)c1 [m-Chlorophenylbiguanide hydrochloride]  Tubb3 expression by RT-PCR          4.97
8                     O=C(O)Cc1cccnc1C(=O)O  Tubb3 expression by RT-PCR          2.95
